Values were extracted from the supplement of paper PMC11451515.

- Tested on: P12-Ichikawa
- PROTOCOL_DETAILS: cell viability relative to DMSO control; higher = less cytotoxic
- EXPERIMENTAL_PARAMETERS: RPMI 5 mM glucose + 10% dialyzed FBS; 48 h; 15.4 µM
Parameter cell viability: see the listing below.
Entry rule: numbers only, all in %.

- MOLECULE: "COc1cc2cc(c1Cl)N(C)C(=O)C[C@H](OC(=O)C(C)C)[C@]1(C)O[C@@H]1[C@H](C)[C@@H]1C[C@@](O)(NC(=O)O1)[C@H](OC)/C=C/C=C(\\C)C2"
  TARGET_ENTITY: "P12-Ichikawa"
  VALUE_UNIT: "%"
  cell viability: 8.07
- MOLECULE: "Nc1cc(N2CCCCC2)nc(N)[n+]1[O-]"
  TARGET_ENTITY: "P12-Ichikawa"
  VALUE_UNIT: "%"
  cell viability: 113
- MOLECULE: "Clc1ccc(C(c2ccccc2Cl)C(Cl)Cl)cc1 (stereo not drawn)"
  TARGET_ENTITY: "P12-Ichikawa"
  VALUE_UNIT: "%"
  cell viability: 99.6
- MOLECULE: "CN1CCN(CC1)C2=CC3=C([NH]C(=N3)C/4=C(\\N)C5=C(F)C=CC=C5NC4=O)C=C2"
  TARGET_ENTITY: "P12-Ichikawa"
  VALUE_UNIT: "%"
  cell viability: 46.3
- MOLECULE: "Cc1nc(-c2ccc(-c3ccc(C(=O)N4CCc5cc6c(cc54)C4(CCN(C)CC4)CO6)cc3)c(C)c2)no1"
  TARGET_ENTITY: "P12-Ichikawa"
  VALUE_UNIT: "%"
  cell viability: 121
- MOLECULE: "O=C(Nc1ccccc1)Nc1ccc(-c2ccc(C(=O)[C@@H]3CCC[C@H]3C(=O)O)cc2)cc1"
  TARGET_ENTITY: "P12-Ichikawa"
  VALUE_UNIT: "%"
  cell viability: 83.9
- MOLECULE: "CC(C)(C)[C@]1(O)C[C@@H]2OC(=O)C[C@@]23C(=O)O[C@@H]2OC(=O)[C@H](O)C213 (stereo partly drawn)"
  TARGET_ENTITY: "P12-Ichikawa"
  VALUE_UNIT: "%"
  cell viability: 116

Attention now shifts to the item below.
Specify cell viability for COc1cc2c(cc1O)CCC1C2CC[C@@]2(C)C1CC[C@@H]2O (stereo partly drawn) and stop.
27.8
